Source listed as the nanobody polyreactivity screen of Harvey et al. (2022).

# Protocol Text: yeast display, Sf9 membrane polyspecificity reagent, FACS + sequencing; frameworks hold sequencing errors
Value Kind: polyreactivity (PSR sort gate)

# Primary Sequence, Result
rows = [
    ("QVQLVDSGGGLVQAGGSLRLSCAASGRTFRHNAMGWYRQAPGKERELVATISNRGGTSYYADSVKGRFTISRDNANNTVYLQMNSLKPEDTAVYYCAARVGVLGYVRYGYWGHGTQVTVSS", "low polyreactivity"),
    ("QVQLVESGGGLVQAGGSLRLSCAASGSIFFRYTMGWYRQAPGKERELVAAITGSGGSTYYADSVKGRFTISRDNAKNTVYLQMNSLKPEDTAVYYCARPGWGRYEYWGQGTQVTVSS", "high polyreactivity"),
    ("QVQLVESGGGLVQAGGSLRLSCAASGFTFTRYAMGWYRQAPGKERELVADITRSGGTTYYADSVKGRFTISRDNAKNTVYLQMNSLKPEDTAVYYCAADTYSHGRYYRMDYWGQGTQVTVSS", "high polyreactivity"),
    ("QVQLVESGGGLVQAGGSLRLSCAASVRIFFRYAMGWYRQAPGKERELVAAIRKSGGSTYYADSVKGRFTISRDNAKNTVYFQMNSLKPEDTAVYYCAADVYYYYGRKYNYWGQGTQVTVSS", "low polyreactivity"),
    ("QVQLVESGGGLVQAGGRLRLSCAASGRIFDYNAMGWNRQAPWKERELVAAIRTSGGSTYYADSVKGRFTISRDNAKNTVYLPMISLKPEDNAVYYCAATSRRYRVRYDSWGQGTQVTVSS", "high polyreactivity"),
]

---

# Protocol Text: yeast display, Sf9 membrane polyspecificity reagent, FACS + sequencing; frameworks hold sequencing errors
Value Kind: polyreactivity (PSR sort gate)

# Primary Sequence, Result
measured = [
    ("QVQLVESGGGIVQAGGSLRLSCAASGRTFYDYAMGWYRPAPGKERELVAAISRRAGSTYYADSVKGRFTISRDISKNSVYLQMISLNPEDTAVYFCAAAYSRRWWRGHHYAFDYWGQGTQVTVSS", "high polyreactivity"),
    ("QVQLVESGGGLVQAGGSLRLSCAASGRIFPLYAMGWYRQAPGKERELVAAITWRAGITYYADSVKGRFTISRDNAKNTVYLQMNSLKPEDTAVYYCAARFVRGRGFAYGYWGQGTQVTVSS", "high polyreactivity"),
    ("QVQLVESGGGIVQAGGSLRLICAASGLIFTLYAMGWSRQAPGKERQLVAVISSAGSTNYADSVKGRFTISRDTAKNTVYLQMNSLKPEETAVYYCNAEPTTPYWDYWAYEDDYWGQGTQVTVSS", "low polyreactivity"),
    ("QVQLVESGGGLVQAGGSLRVSCAASGSIFRWYTMGCYRQAPGKEREFVADISWSGGRTYYADSVKGRFTISRDNASYSVYLQMNCLKPEDTAVYYCNAEHNTRYDYWGQGTQVSVSS", "low polyreactivity"),
    ("QVHLVESGGGLVQAGGSLRLSCAASGSTFDDNTMGWYRQAPGKERELVAAISSDSSTNYADSVKGRFTISRDNAKNTVYLQMNSLKPEDTAVYSCATRSRTTKIVRWPGMYYWGQGTQVTVSS", "high polyreactivity"),
    ("QVQLVESGGGLVQAGGSLRLSCAASGFIFWKNAMGWYRQAPGKERELVAAISWSGGRTYYADSVKGRFTISRDNAKNTFYLQINSLKPEETAVYYCNAAGRYKPGAPYDYWGQGTQVTVSS", "low polyreactivity"),
    ("QVQLVESGGGLVQAGGSLRLSCAASGSTFSPNVMGWYRQAPGKERELVAAISSSTGSTNYADSVKGRFTISRDNAKNTVYLQMNSLKPEDTAVYYCAVDPYVHWTTKLYDYWGQGTQVTVSS", "low polyreactivity"),
    ("QVQLVESGGGLVQAGGSLRFSCPASGSIFPAYARGWYRQAPGKERELVAAITRGGSTDYADSVKGRFTISRDNAKNTVYLQMNSLKPEDTAVYYCAKRGYYYYHYVSGKPEDYWGQGTQVTVSS", "low polyreactivity"),
    ("QGQLVESGGGLVQAGGSLSLSCAASRLTFYSNAMGWYRPAPGKEREMVAAISWIGASTYYADSVKGRFPISRDNAKNTVYLQMNSLKPEDTAVYYCAARAQARVFGWRFYYWGQGTQVTVSS", "high polyreactivity"),
    ("QVQLVESGGGLVQAGGSLRLSCAASGIPFEGYAMGWYRQAPGKERELVAAIRSSGTSTYYADSVKGRFTISRDTAKNTVYLQMNSLKPEDTAVYYCNRARSSSRYDYWGQGTQVTVSS", "low polyreactivity"),
    ("QVQLVESGGGLVQAGGSLRLSCAASGFTFYYYAMGWYRQAPGKERELVAAITWSGDSTNYADSVKGRFTISRDNAKNSVYLQMNSLKPEDTAVYYCATESYDSYGLYDYWGQGTQVTVSS", "low polyreactivity"),
    ("QVQLVESGGGLVQAGGSLRLSCASSGIIFYAYAMGWYRQAPGKERELVAAINFNTGRTYYADSVKGRFTISRDNAKNTVYLQMNSLKPEDTAVYYCAKSSYRNSGERDYWGQGTQVTVSS", "high polyreactivity"),
    ("QVQLVESGGGLGQAGGSLRLSCAASGSIFYYYAMGWYRQAPGKERELVAGINSGDSTYYADSVKGRFTISRDNAKNTVYLQMNRLKPEDTAVYYCAASADGWYEYWGQGTQVTVSS", "low polyreactivity"),
    ("QVQLVESGGGLVQAGGSLRLSCAASGLTFPYYAMGWYRQAPGTERELVAVITTSTGTTYYADSVKGRFTMSRDNAKNTVYLQMNSLKPEDTAVYYCATDTGAYWFSLYDYWGQGTQVTVSS", "low polyreactivity"),
    ("QVQLVESGVGLVQAGGSLRLSCADSGSNFRYTMGCYRQAPWKERELVAAINRGASTYYADSVKGRFTISRDNAKKTVYLQMNSLKPVDNAVYYCAASVGTQGYHGDYWGQGTQVTVSS", "high polyreactivity"),
    ("QVQLVESGGGLVQAGGSLRLSCAASGFTFISYAMGWYSQAPGQERELVAAISSTGGSTYYADSVKGRFTSSRDTAKKTVYLQMNSLKPEETAVYYCNAVYWYTSEYDYWGQGTQVTVSS", "high polyreactivity"),
    ("QVQLVESGGGLVQAGGSLRLSCAASGRTLGTNAMGWYRQAPGKERELVATISRGGITNYADSVKGRFTISRDNPKNTVYLQMNSLKPEDTAVYYCNVRYQHVYRGYGPNKYNYWGQGTQVTVSS", "high polyreactivity"),
    ("QVQLVESGGGLVQAGGSLRLSCAASGNIFYTNAMGWYRQAPGKERELVAAISRSGGRTYYADSVKGRFTISRDNAKNTVYLQMNSLKPEDTAVYYCAKQLYSPYKQRGYRLSPYEYWGQGTQVTVSS", "low polyreactivity"),
    ("QVQLVESGGGLFQAGGSILLSCPASGSTFDNYSMGWYRQAPGKERELVAGISWSGGSTFYADSVKGRFTISRDNAKYTVYLQMNSLKTEDTAVYYCAARIRYLDVRDNDNYYWGQGTQVTVSS", "low polyreactivity"),
    ("QVQLVESGGGLVQAGGSLRLSCAASGRTFNTYAMGWYRQAPGKEREFVAAIRYSGDRTNYADSVKGRFTISRDNAKNTVYLQMNSLKPEDTAVYYCAAVNYFPWWSFEYWGQGTQVTVSS", "low polyreactivity"),
    ("QVQLVESGGGLVQAGGSLRLSCAASGRIFGSYAMGWYRQAPGKERELVAAISGDGDSTYYADSVKGRFTISRDNAKNTVYFQMNSLKPEDTAVYYCAAEPNVYFSVFVLFPSDYWGQGTQVTVSS", "low polyreactivity"),
]
